Each recorded value in this set is attributed to ChEMBL document CHEMBL2146373.

test system: Osteoblast; experiment: Osteoblast activity in neonatal rat calvarie-derived primary osteoblasts assessed as [3H]thymidine incorporation at 10^-10 to 10^-8 M by beta counting; type: functional, cell-based
Calls of active or inactive are those of the source. The rule behind the calls is not given here.
Use one of these outcomes when replying: T (active), F (inactive)

Consider the following illustrative entries.
C[C@H](NC(=O)[C@@H]1CCCCNC(=O)OCC=CCOC(=O)NCCCC[C@H](NC(=O)[C@@H](N)CCCCN)C(=O)N[C@@H](CC(N)=O)C(=O)N[C@@H]([C@@H](C)O)C(=O)N[C@@H](C)C(=O)N[C@@H]([C@@H](C)O)C(=O)N1)C(N)=O (mixture of isomers; 5a) :: T
C[C@H](NC(=O)[C@@H]1CC=CC[C@H](NC(=O)[C@@H](N)CCCCN)C(=O)N[C@@H](CC(N)=O)C(=O)N2CCC[C@H]2C(=O)N[C@@H](C)C(=O)N[C@@H]([C@@H](C)O)C(=O)N1)C(N)=O (mixture of isomers; 2a) :: F
C[C@H](NC(=O)[C@@H]1CCCCNC(=O)OCC=CCOC(=O)NCCCC[C@H](NC(=O)[C@@H](N)CCCCN)C(=O)N[C@@H](CC(N)=O)C(=O)N[C@@H]([C@@H](C)O)C(=O)N[C@@H](C)C(=O)N[C@@H]([C@@H](C)O)C(=O)N1)C(N)=O (mixture of isomers; 5b) :: T

Which result was noted for this compound in the test: C[C@H](NC(=O)[C@@H]1CC=CC[C@H](NC(=O)[C@@H](N)CCCCN)C(=O)N[C@@H](CC(N)=O)C(=O)N[C@@H]([C@@H](C)O)C(=O)N[C@@H](C)C(=O)N[C@@H]([C@@H](C)O)C(=O)N1)C(N)=O (mixture of isomers)
T

// param item: C[C@H](NC(=O)[C@@H]1CC=CC[C@H](NC(=O)[C@@H](N)CCCCN)C(=O)N[C@@H](CC(N)=O)C(=O)N2CCC[C@H]2C(=O)N[C@@H](C)C(=O)N[C@@H]([C@@H](C)O)C(=O)N1)C(N)=O (mixture of isomers; 2b) ; yields the recorded call
F
